Catalogue of IC50 readings, one per entry.
targetSystem: T1, recombinant human VEGF165 (human, UniProt P15692-4 27-191)
T1 construct: also called hVEGF165; rhVEGF165
T1 sequence (P15692 other isoform, or with tags, fused parts or gaps limits assumed): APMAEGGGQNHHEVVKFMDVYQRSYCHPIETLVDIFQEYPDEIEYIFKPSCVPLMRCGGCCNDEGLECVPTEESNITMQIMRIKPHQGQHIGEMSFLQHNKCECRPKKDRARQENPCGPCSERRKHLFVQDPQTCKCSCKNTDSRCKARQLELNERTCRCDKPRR
protocolText: VEGF/VEGFR1 competition AlphaScreen
Answer with a number only, understood to be in nM.

- binder: "VEGFBII023 (VHH, biparatopic bivalent VHH in one chain; also called VEGFBII23B04-40GS-10E07; VEGFBI023) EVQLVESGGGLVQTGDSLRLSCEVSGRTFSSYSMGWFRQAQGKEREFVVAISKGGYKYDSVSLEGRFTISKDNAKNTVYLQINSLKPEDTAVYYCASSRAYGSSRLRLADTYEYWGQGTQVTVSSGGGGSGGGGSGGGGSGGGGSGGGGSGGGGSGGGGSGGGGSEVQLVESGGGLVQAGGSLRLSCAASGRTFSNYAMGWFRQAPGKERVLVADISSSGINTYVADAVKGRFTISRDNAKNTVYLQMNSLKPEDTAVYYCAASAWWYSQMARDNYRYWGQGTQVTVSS"
  attributeMeasured: "IC50"
  reportedMeasurement: 0.044

Alright, here's another binder for you.
Please fill in: IC50 reported for VEGFBII024 (VHH, biparatopic bivalent VHH in one chain; also called VEGFBII23B04-40GS-86H09; VEGFBI024) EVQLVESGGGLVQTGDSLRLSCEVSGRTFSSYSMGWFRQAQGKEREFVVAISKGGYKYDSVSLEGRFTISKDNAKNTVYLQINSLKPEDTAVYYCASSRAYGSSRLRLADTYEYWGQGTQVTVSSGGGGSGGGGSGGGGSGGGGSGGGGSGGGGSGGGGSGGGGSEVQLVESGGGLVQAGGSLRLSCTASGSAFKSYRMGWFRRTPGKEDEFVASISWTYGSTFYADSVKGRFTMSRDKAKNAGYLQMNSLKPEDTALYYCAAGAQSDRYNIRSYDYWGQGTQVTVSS = 0.046
